# system.tested: Tyrosine-protein kinase JAK2 (Homo sapiens)
# Sequence (O60674 whole entry): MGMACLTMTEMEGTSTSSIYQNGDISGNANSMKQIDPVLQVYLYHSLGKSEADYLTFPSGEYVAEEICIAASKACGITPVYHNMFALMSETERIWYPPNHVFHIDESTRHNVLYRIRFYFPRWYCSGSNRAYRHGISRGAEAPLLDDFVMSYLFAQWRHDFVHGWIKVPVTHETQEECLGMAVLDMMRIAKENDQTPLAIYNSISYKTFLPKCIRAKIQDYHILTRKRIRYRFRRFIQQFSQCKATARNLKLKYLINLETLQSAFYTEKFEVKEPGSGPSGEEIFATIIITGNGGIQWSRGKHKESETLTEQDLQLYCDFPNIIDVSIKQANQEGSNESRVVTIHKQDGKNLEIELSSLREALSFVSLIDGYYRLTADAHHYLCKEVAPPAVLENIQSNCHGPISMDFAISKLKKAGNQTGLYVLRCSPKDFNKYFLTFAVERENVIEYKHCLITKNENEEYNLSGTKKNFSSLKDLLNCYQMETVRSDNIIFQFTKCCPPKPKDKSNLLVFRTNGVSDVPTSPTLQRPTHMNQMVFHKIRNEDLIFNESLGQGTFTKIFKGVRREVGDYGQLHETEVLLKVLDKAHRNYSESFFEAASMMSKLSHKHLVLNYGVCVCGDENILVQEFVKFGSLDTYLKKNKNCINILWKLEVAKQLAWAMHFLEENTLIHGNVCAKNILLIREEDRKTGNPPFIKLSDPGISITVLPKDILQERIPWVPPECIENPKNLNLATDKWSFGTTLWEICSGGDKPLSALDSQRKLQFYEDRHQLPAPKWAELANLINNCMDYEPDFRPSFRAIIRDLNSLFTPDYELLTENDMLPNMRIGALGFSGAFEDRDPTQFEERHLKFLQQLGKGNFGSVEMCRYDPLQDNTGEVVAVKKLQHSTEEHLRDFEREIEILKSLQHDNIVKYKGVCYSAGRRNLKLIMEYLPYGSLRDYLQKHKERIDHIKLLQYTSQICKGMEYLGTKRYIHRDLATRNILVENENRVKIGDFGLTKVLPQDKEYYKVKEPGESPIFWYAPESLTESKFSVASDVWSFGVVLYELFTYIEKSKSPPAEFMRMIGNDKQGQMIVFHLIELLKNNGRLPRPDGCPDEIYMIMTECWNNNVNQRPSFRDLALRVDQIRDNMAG
# measurement.description: Inhibition of recombinant human C-terminal His6-tagged JAK2 (808 to end residues) expressed in baculovirus infected Sf21 insect cells using Biotin-TYR1 (Biotin-(Ahx)-GAEEEIYAAFFA-COOH as substrate
endpoint.label: IC50 (nM)

> print(dat)
                                   compound                             system.tested  endpoint.label  numeric.result
1  CC[C@H]1CN(C(=O)NCC(F)(F)F)C[C@H]1C1C=NC2=CN=C3NC=CC3N21 (stereo partly specified)  Tyrosine-protein kinase JAK2 (Homo sapiens)            IC50             120
